test system: K4 kissing-loop RNA reporter; assay: apparent KD of K4 kissing-loop reporter; higher = weaker reporter binding; conditions: Eterna round: R107; input ligand: none
Reported apparent KD of K4 kissing-loop reporter values for a set of sequences
Report the figure along with its unit, number first.

Reference set, count: 2
>  <construct-sequence>
GUAUAAAUAUAAGGAUAUGCAGGGAAAGUAAGAAUGGGUUAGUUGAACUUUAGUGAUGUUGAGGAAGCAGAAGGUGUAUAUGUGU [FMN B same state]

>  <tested-on>
K4 kissing-loop RNA reporter

>  <parameter>
apparent KD of K4 kissing-loop reporter

>  <reported-value>
0.381 µM

$$$$
>  <construct-sequence>
UGAUUGCCAGUGAUGUUGGCAUAAACUGAAGGAGCGCGUGAAAACGCAGGUAGGUCGCAGUACCAUGCCAAUUGAUCGAAAGAUC [KL-XArg-A2]

>  <tested-on>
K4 kissing-loop RNA reporter;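 also: bound reporter read as fluorescence of individual clusters on recovered sequencing chips by microscopy, with normalized cluster intensities fitted with a binding model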

>  <parameter>
apparent KD of K4 kissing-loop reporter

>  <reported-value>
0.155 µM

$$$$

Considering AAUUCUUAUCUUAGUAGAUUUCUAAUUAAACGAGGACCGGUACGGCCGCCACUCGGUUAUGAGUGAUGUUCAUGGAAUUACAUAA [JR_SSTryptoA_Sub018] , its apparent KD of K4 kissing-loop reporter with K4 kissing-loop RNA reporter was recorded as 0.467 µM
